ASSAY ENDPOINT: melting point (°C)

Reference set, count: 4
CCn1c(N)c(C(=O)NC)c(=O)c2ccc(C#CC(O)C3CCCC3)nc21 (racemic)	253
CNC(=O)c1c(N)n(C2CCCC2)c2nc(C#CC(C)(O)CO)ccc2c1=O (racemic)	210.5
CCn1c(N)c(C(=O)NC)c(=O)c2ccc(C#CC3(O)CCOC3)nc21 (racemic)	253
CCn1c(N)c(C(=O)NC)c(=O)c2ccc(C#CC(O)(COC)C3CC3)nc21 (racemic)	208

[1] CNC(=O)c1c(N)n(Cc2ccccn2)c2nc(C#CC(C)(O)COC)ccc2c1=O (racemic)
[2] CCn1c(N)c(C(=O)NC)c(=O)c2ccc(C#CC(C)(O)c3cnccn3)nc21 (racemic)
// query Compare melting point: is it lower for 1 or for 2 ? Give the label under which the chosen entry appears.
// result 1
